Catalogue of IC50 values
- Tested on: RPMI-8226
- Assay Summary: Anti-proliferative assay (cellular IC50), RPMI-8226
- Condition Parameters: Homo sapiens, RPMI-8226, read-out: In Vitro Cellular IC50 RPMI-8226
Reported Endpoint: IC50

[[record]]
compound = "CS(=O)(=O)N1CCN(Cc2cc3nc(-c4cccc5[nH]ncc45)nc(N4CCOCC4)c3s2)CC1 [GDC-0941, reference compound]"
tested_on = "RPMI-8226"
reported_endpoint = "IC50"
reported_measurement = "2000 to 10000 nM"

[[record]]
compound = "CC(C)n1cnc2c(-c3cccc(OCCCC(=O)NO)c3)nc(N3CCOCC3)nc21"
tested_on = "RPMI-8226"
reported_endpoint = "IC50"
reported_measurement = "< 500 nM"

[[record]]
compound = "CCn1c(CN(C)Cc2ccc(C(=O)NO)cc2)nc2c(N3CCOCC3)nc(-c3cnc(N)nc3)nc21"
tested_on = "RPMI-8226"
reported_endpoint = "IC50"
reported_measurement = "500 to 2000 nM"

